The reported measurements were obtained from ChEMBL document CHEMBL5518181.

assay: Hemolytic activity in human red blood cells at 400 ug/ml incubated for 45 mins by spectrophotometric analysis relative to control; type: toxicity, cell-based, Erythrocyte; details: red blood cells (erythrocytes), at 400 µg/mL, read-out: Activity
# reported hemolysis at 0.75 h, 400 ug/ml; entries follow
Measurement Label: hemolysis at 0.75 h, 400 ug/ml (%)

given_smiles=CC[C@H](C)[C@@H](NC(=O)[C@@H](NC(=O)[C@H](C)NC(=O)[C@H](Cc1ccccc1)NC(=O)[C@@H](CCN)NC(=O)[C@H](CCN)NC(=O)[C@H](CO)NC(=O)[C@@H](Cc1c[nH]c2ccccc12)NC(=O)[C@@H](CO)NC(=O)CNC(=O)[C@@H](CCN)NC(=O)[C@H](NC(=O)[C@H](C)N)C(C)C)C(C)C)C(=O)N[C@@H](C)C(=O)O measurement_label="hemolysis at 0.75 h, 400 ug/ml" reported_value=0.3
given_smiles=CC[C@H](C)[C@@H](NC(=O)[C@@H](NC(=O)[C@H](CCC(=O)O)NC(=O)[C@H](Cc1ccccc1)NC(=O)[C@@H](CCN)NC(=O)[C@H](CCN)NC(=O)[C@H](CO)NC(=O)[C@@H](Cc1c[nH]c2ccccc12)NC(=O)[C@@H](CO)NC(=O)[C@H](CC(=O)O)NC(=O)[C@@H](CCN)NC(=O)[C@H](N)C(C)C)C(C)C)C(=O)N[C@@H](C)C(=O)O measurement_label="hemolysis at 0.75 h, 400 ug/ml" reported_value=0
given_smiles=CC[C@H](C)[C@@H](NC(=O)[C@@H](NC(=O)[C@H](CCC(=O)O)NC(=O)[C@H](Cc1ccccc1)NC(=O)[C@@H](CCN)NC(=O)[C@H](CCN)NC(=O)[C@H](CO)NC(=O)[C@@H](Cc1c[nH]c2ccccc12)NC(=O)[C@@H](CO)NC(=O)CNC(=O)[C@@H](CCN)NC(=O)[C@H](N)C(C)(C)C)C(C)C)C(=O)N[C@@H](C)C(=O)O measurement_label="hemolysis at 0.75 h, 400 ug/ml" reported_value=13
given_smiles=CC[C@H](C)[C@@H](NC(=O)[C@@H](NC(=O)[C@H](CCC(=O)O)NC(=O)[C@H](Cc1ccccc1)NC(=O)[C@@H](CCN)NC(=O)[C@H](CCN)NC(=O)[C@H](CO)NC(=O)[C@@H](Cc1c[nH]c2ccccc12)NC(=O)[C@@H](CO)NC(=O)[C@H](C)NC(=O)[C@@H](CCN)NC(=O)[C@H](NC(=O)[C@H](C)N)C(C)C)C(C)C)C(=O)N[C@@H](C)C(=O)O measurement_label="hemolysis at 0.75 h, 400 ug/ml" reported_value=31.9
given_smiles=CC[C@H](C)[C@@H](NC(=O)[C@@H](NC(=O)[C@H](CCC(=O)O)NC(=O)[C@H](Cc1ccccc1)NC(=O)[C@@H](CCN)NC(=O)[C@H](CCN)NC(=O)[C@H](CO)NC(=O)[C@@H](Cc1c[nH]c2ccccc12)NC(=O)[C@@H](CO)NC(=O)CNC(=O)[C@@H](CCN)NC(=O)[C@H](N)CC(=O)O)C(C)C)C(=O)N[C@@H](C)C(=O)O measurement_label="hemolysis at 0.75 h, 400 ug/ml" reported_value=0
given_smiles=CC[C@H](C)[C@@H](NC(=O)[C@@H](NC(=O)[C@H](CCC(=O)O)NC(=O)[C@H](Cc1ccccc1)NC(=O)[C@@H](CCN)NC(=O)[C@H](CCN)NC(=O)[C@H](CO)NC(=O)[C@@H](Cc1c[nH]c2ccccc12)NC(=O)[C@@H](CO)NC(=O)CNC(=O)[C@@H](C)NC(=O)[C@H](N)C(C)C)C(C)C)C(=O)N[C@@H](C)C(=O)O measurement_label="hemolysis at 0.75 h, 400 ug/ml" reported_value=0.1
given_smiles=CC[C@H](C)[C@@H](NC(=O)[C@@H](NC(=O)[C@H](CCC(N)=O)NC(=O)[C@H](Cc1ccccc1)NC(=O)[C@@H](CCN)NC(=O)[C@H](CCN)NC(=O)[C@H](CO)NC(=O)[C@@H](Cc1c[nH]c2ccccc12)NC(=O)[C@@H](CO)NC(=O)CNC(=O)[C@@H](CCN)NC(=O)[C@H](N)C(C)C)C(C)C)C(=O)N[C@@H](C)C(=O)O measurement_label="hemolysis at 0.75 h, 400 ug/ml" reported_value=2.1
given_smiles=CC[C@H](C)[C@@H](NC(=O)[C@@H](NC(=O)[C@H](CCC(=O)O)NC(=O)[C@H](Cc1ccccc1)NC(=O)[C@@H](CCN)NC(=O)[C@H](CCN)NC(=O)[C@H](CO)NC(=O)[C@@H](Cc1c[nH]c2ccccc12)NC(=O)[C@@H](CO)NC(=O)CNC(=O)[C@@H](CCN)NC(=O)[C@H](N)C(C)C)C(C)C)C(=O)N[C@@H](C)C(=O)O measurement_label="hemolysis at 0.75 h, 400 ug/ml" reported_value=3.6
given_smiles=CC[C@H](C)[C@@H](NC(=O)[C@@H](NC(=O)[C@H](CCC(=O)O)NC(=O)[C@H](Cc1ccccc1)NC(=O)[C@@H](CCN)NC(=O)[C@H](CCN)NC(=O)[C@H](CO)NC(=O)[C@@H](Cc1c[nH]c2ccccc12)NC(=O)[C@@H](CO)NC(=O)CNC(=O)[C@@H](CCN)NC(=O)[C@@H](C)N)C(C)C)C(=O)N[C@@H](C)C(=O)O measurement_label="hemolysis at 0.75 h, 400 ug/ml" reported_value=6.4
given_smiles=CC(C)C[C@@H](NC(=O)[C@@H](NC(=O)[C@H](CCC(=O)O)NC(=O)[C@H](Cc1ccccc1)NC(=O)[C@@H](CCN)NC(=O)[C@H](CCN)NC(=O)[C@H](CO)NC(=O)[C@@H](Cc1c[nH]c2ccccc12)NC(=O)[C@@H](CO)NC(=O)CNC(=O)[C@@H](CCN)NC(=O)[C@H](N)C(C)C)C(C)C)C(=O)N[C@@H](C)C(=O)O measurement_label="hemolysis at 0.75 h, 400 ug/ml" reported_value=45.9
given_smiles=CC[C@H](C)[C@@H](NC(=O)[C@@H](NC(=O)[C@H](CCC(=O)O)NC(=O)[C@H](Cc1ccccc1)NC(=O)[C@@H](CCN)NC(=O)[C@H](CCN)NC(=O)[C@H](CO)NC(=O)[C@@H](Cc1c[nH]c2ccccc12)NC(=O)[C@@H](CO)NC(=O)CNC(=O)[C@@H](CCN)NC(=O)[C@H](NC(=O)[C@@H](N)CO)C(C)C)C(C)C)C(=O)N[C@@H](C)C(=O)O measurement_label="hemolysis at 0.75 h, 400 ug/ml" reported_value=4.2
given_smiles=CC[C@H](C)[C@@H](NC(=O)[C@@H](NC(=O)[C@H](CCC(=O)O)NC(=O)[C@H](Cc1c[nH]c2ccccc12)NC(=O)[C@@H](CCN)NC(=O)[C@H](CCN)NC(=O)[C@H](CO)NC(=O)[C@@H](Cc1c[nH]c2ccccc12)NC(=O)[C@@H](CO)NC(=O)CNC(=O)[C@@H](CCN)NC(=O)[C@H](N)C(C)C)C(C)C)C(=O)N[C@@H](C)C(=O)O measurement_label="hemolysis at 0.75 h, 400 ug/ml" reported_value=43.7

* * *

test system: Klebsiella pneumoniae; test: Antibacterial activity against wild-type Klebsiella pneumoniae ATCC 13883 assessed as inhibition of bacterial growth incubated for 18 hrs in presence of 50% heat inactivated human serum; format: functional; conditions: read-out: MIC100
# reported MIC; entries follow
Measurement Label: MIC (µg/mL)

given_smiles=CC[C@H](C)[C@@H](NC(=O)[C@@H](NC(=O)[C@H](CCC(=O)O)NC(=O)[C@H](Cc1ccccc1)NC(=O)[C@@H](CCN)NC(=O)[C@H](CCN)NC(=O)[C@H](CO)NC(=O)[C@@H](Cc1c[nH]c2ccccc12)NC(=O)[C@@H](CO)NC(=O)CNC(=O)[C@@H](CCN)NC(=O)[C@H](NC(=O)[C@H](C)N)C(C)C)C(C)C)C(=O)N[C@@H](C)C(=O)O u=µg/mL reported_value=1
given_smiles=CC[C@H](C)[C@@H](NC(=O)[C@@H](NC(=O)[C@H](CCC(=O)O)NC(=O)[C@H](Cc1ccccc1)NC(=O)[C@@H](CCN)NC(=O)[C@H](CCN)NC(=O)[C@H](CO)NC(=O)[C@@H](Cc1c[nH]c2ccccc12)NC(=O)[C@@H](CO)NC(=O)CNC(=O)[C@@H](CCN)NC(=O)[C@H](NC(=O)[C@@H](C)N)C(C)C)C(C)C)C(=O)N[C@@H](C)C(=O)O u=µg/mL reported_value=4
given_smiles=CC[C@H](C)[C@@H](NC(=O)[C@@H](NC(=O)[C@H](CCC(=O)O)NC(=O)[C@H](Cc1ccccc1)NC(=O)[C@@H](CCN)NC(=O)[C@H](CCN)NC(=O)[C@H](CO)NC(=O)[C@@H](Cc1c[nH]c2ccccc12)NC(=O)[C@@H](CO)NC(=O)CNC(=O)[C@@H](CCN)NC(=O)[C@H](NC(=O)CCCCCN)C(C)C)C(C)C)C(=O)N[C@@H](C)C(=O)O u=µg/mL reported_value=2
given_smiles=CC[C@H](C)[C@@H](NC(=O)[C@H](CC1CCCCC1)NC(=O)[C@H](CCC(=O)O)NC(=O)[C@H](Cc1ccccc1)NC(=O)[C@@H](CCN)NC(=O)[C@H](CCN)NC(=O)[C@H](CO)NC(=O)[C@@H](Cc1c[nH]c2ccccc12)NC(=O)[C@@H](CO)NC(=O)CNC(=O)[C@@H](CCN)NC(=O)[C@H](N)C(C)C)C(=O)N[C@@H](C)C(=O)O u=µg/mL reported_value=4
